Here is a set of compounds with reported IC50 for Beta-2 adrenergic receptor (Homo sapiens, UniProt P07550), compiled from the literature.

Worked examples, 3 compounds total:
| COMPOUND | IC50 |
| --- | --- |
| COc1ccc(CC(C)(C)NC[C@@H](O)COc2cccc(Cl)c2Cl)cc1 | 300 nM |
| CCC(=O)Nc1ccc(S(=O)(=O)Nc2ccc(CCNC[C@H](O)COc3ccc(O)cc3)cc2)cc1 | 220 nM |
| CC(C)(Cc1ccc2ccccc2c1)NC[C@@H](O)COc1ccc(CCC(=O)O)cc1 | > 30000 nM |

Request body: readout IC50, system Beta-2 adrenergic receptor (Homo sapiens, UniProt P07550), query CCCCCCN(C)C(=O)N(C)c1ccc(S(=O)(=O)Nc2ccc(CCNC[C@H](O)COc3ccc(O)cc3)cc2)cc1 . Return the value. 120 nM

// fetch Beta-2 adrenergic receptor (Homo sapiens, UniProt P07550) IC50 for Cc1noc(-c2cccc(CN3CCN(C(=O)c4ccc(C[C@@H]5CC[C@H]([C@H](O)c6ccccc6)N5)cc4)CC3)n2)n1 > 20000 nM

Item Cc1nnc(-c2cccc(CN3CCN(C(=O)c4ccc(C[C@@H]5CC[C@H]([C@H](O)c6ccccc6)N5)cc4)CC3)n2)o1 with Beta-2 adrenergic receptor (Homo sapiens, UniProt P07550) - IC50? > 20000 nM

Lookup: IC50 / Beta-2 adrenergic receptor (Homo sapiens, UniProt P07550) / Cn1nc(C(=O)OC[C@@H]2CCN3CCC[C@@H]23)c2ccccc21 (single isomer, unassigned) > 10000 nM

So what IC50 did CCn1nnc(CN2CCN(C(=O)c3ccc(C[C@@H]4CC[C@H]([C@H](O)c5ccccc5)N4)cc3)CC2)n1 get with Beta-2 adrenergic receptor (Homo sapiens, UniProt P07550)? > 20000 nM

---

Collected set of pIC50 measured with Beta-2 adrenergic receptor (Homo sapiens, UniProt P07550) across studies.
Worth noting: pIC50 values are minus log10 of concentrations stated in mol/L.

Some solved entries appear below for comparison.
| MOLECULE | VALUE_OBSERVED |
| --- | --- |
| COC(=O)Nc1ccc(S(=O)(=O)Nc2ccc(CCNC[C@H](O)COc3ccc(O)cc3)cc2)cc1 | 6.37 |
| CCCCCCC(=O)Nc1ccc(S(=O)(=O)Nc2ccc(CCNC[C@H](O)COc3ccc(O)cc3)cc2)cc1 | 6.64 |
| O=S(=O)(Nc1ccc(CCNC[C@H](O)COc2ccc(O)cc2)cc1)C1CCCCC1 | 5.52 |
| O=S(=O)(Nc1ccc(CCNC[C@H](O)c2cccnc2)cc1)c1ccc(-c2nc(-c3ccc(F)cc3F)cs2)cc1 | 5.59 |
| COc1ccc(CC(C)(C)NC[C@H](O)COc2cccc(Cl)c2Cl)cc1 | 9.00 |
| O=S(=O)(Nc1ccccc1)c1ccc2c(c1)CCN2c1cccc(CCCC2CCCC2)c1 | 5.12 |
| OCc1cc(C(O)CNCc2cccc(CNCC(O)c3ccc(O)c(CO)c3)c2)ccc1O (stereo not given) | 4.70 |
| O=S(=O)(Nc1ccc(CCNC[C@H](O)COc2ccc(O)cc2)cc1)c1ccccc1 | 6.72 |

Form entry - test system: Beta-2 adrenergic receptor (Homo sapiens, UniProt P07550); read-out: pIC50; molecule: COc1ccc(CCCNC[C@H](O)COc2ccc(O)cc2)cc1 7.20

Lab request: please report pIC50 under test system Beta-2 adrenergic receptor (Homo sapiens, UniProt P07550) for CCCCCCN(C)C(=O)N1CCc2cc(S(=O)(=O)Nc3ccccc3)ccc21 5.19

What measured pIC50 is associated with CCCCCCCCNC(=O)Nc1ccc(S(=O)(=O)Nc2ccc(CCNC[C@H](O)COc3ccc(O)cc3)cc2)cc1 on Beta-2 adrenergic receptor (Homo sapiens, UniProt P07550)? 6.77

// fetch Beta-2 adrenergic receptor (Homo sapiens, UniProt P07550) pIC50 for OCc1cc(C(O)CNCc2ccc(CNCC(O)c3ccc(O)c(CO)c3)cc2)ccc1O (stereo not given) 4.30

Lab note: need pIC50 with Beta-2 adrenergic receptor (Homo sapiens, UniProt P07550) for entry O=S(=O)(Nc1ccc(CCNC[C@H](O)c2cccnc2)cc1)c1ccc(-c2nc(-c3cccc(C(F)(F)F)c3)cs2)cc1 , please look it up. 6.01

Please state recorded pIC50 (tested on Beta-2 adrenergic receptor (Homo sapiens, UniProt P07550)) of CCCCCCc1cccc(N2CCc3cc(S(=O)(=O)Nc4ccccc4)ccc32)c1 6.34

---

# IC50 against Beta-2 adrenergic receptor (Homo sapiens, UniProt P07550), merged from multiple literature sources
Numeric answer only, unit nM assumed.

Completed entries (count: 8):
| COMPOUND | METRIC_NAME | UNIT | VALUE_OBSERVED |
| --- | --- | --- | --- |
| CNC(=O)Nc1ccc(S(=O)(=O)Nc2ccc(CCNC[C@H](O)COc3ccc(O)cc3)cc2)cc1 | IC50 | nM | 400 |
| O=S(=O)(Nc1ccc(CCNC[C@H](O)c2cccnc2)cc1)c1ccc(-c2nc(-c3ccccc3C(F)(F)F)cs2)cc1 | IC50 | nM | 1800 |
| OCc1cc(C(O)CNCCc2ccc(NCC(O)c3ccc(O)c(CO)c3)cc2)ccc1O (stereo not drawn) | IC50 | nM | 251 |
| CCCCCCNC(=O)N(C)c1ccc(S(=O)(=O)Nc2ccc(CCNC[C@H](O)COc3ccc(O)cc3)cc2)cc1 | IC50 | nM | 290 |
| O=S(=O)(Nc1ccc(CCNC[C@H](O)c2cccnc2)cc1)c1ccc(-c2nc(-c3ccc(OC(F)(F)F)cc3)cs2)cc1 | IC50 | nM | 1200 |
| CCCCCCCCc1cccc(N2CCc3cc(S(=O)(=O)Nc4ccccc4)ccc32)c1 | IC50 | nM | 1500 |
| CC(C)OC(=O)Nc1ccc(S(=O)(=O)Nc2ccc(CCNC[C@H](O)COc3ccc(O)cc3)cc2)cc1 | IC50 | nM | 210 |
| CCCS(=O)(=O)Nc1ccc(CCNC[C@H](O)COc2ccc(O)cc2)cc1 | IC50 | nM | 500 |

Observed IC50 on Beta-2 adrenergic receptor (Homo sapiens, UniProt P07550) for O=C(Cn1cnc2ccccc2c1=O)Nc1ccc(C[C@@H]2CC[C@H]([C@H](O)c3ccccc3)N2)cc1 , please. 2200

Request - read-out IC50 | tested on Beta-2 adrenergic receptor (Homo sapiens, UniProt P07550) | compound CCOC(=O)CCc1ccc(OC[C@H](O)CNC(C)(C)Cc2ccc3ccccc3c2)c(C#N)c1.Cl 14000

Record lookup: for Beta-2 adrenergic receptor (Homo sapiens, UniProt P07550), what IC50 belongs to CC(C)NC(=O)Nc1ccc(S(=O)(=O)Nc2ccc(CCNC[C@H](O)COc3ccc(O)cc3)cc2)cc1 ? 700

API: value(readout= IC50, system= Beta-2 adrenergic receptor (Homo sapiens, UniProt P07550), query= OCc1cc(C(O)CNCC2CCCC(CNCC(O)c3ccc(O)c(CO)c3)C2)ccc1O (stereo not drawn) ) 10000

---

Literature IC50 values, system: UniProt P07550.

# count of solved cases: 2
| ITEM_SMILES | IC50 |
| --- | --- |
| O=C(Nc1ccc(C[C@@H]2CC[C@H]([C@H](O)c3ccccc3)N2)cc1)[C@@H]1CCc2nccc(=O)n21 | > 20 µM |
| O=C(OC[C@@H]1CCN2CCC[C@@H]12)c1c[nH]c2ccccc12 | > 10 µM |

Consider the additional compound presented here.
Provide value of IC50 for this record tested with UniProt P07550: O=C(c1ccc(C[C@@H]2CC[C@H]([C@H](O)c3ccccc3)N2)cc1)N1CCN(Cc2nnn(CC(F)F)n2)CC1 > 20 µM

---

Reported log10 IC50 on UniProtKB P07550 for assorted molecules, compiled from publications.
Heads up: the numbers are on a log10 scale; they represent IC50 in nM.

I'm curious: which log10 IC50 was measured for CCCCCCNC(=O)N(C)c1ccc(S(=O)(=O)Nc2ccc(CCNC[C@H](O)c3cccnc3)cc2)cc1 tested on UniProtKB P07550? 4.00

Record lookup: for UniProtKB P07550, what log10 IC50 belongs to O=S(=O)(Nc1ccc(CCNC[C@H](O)COc2ccc(O)cc2)cc1)c1ccccc1Cl ? 2.00

Tell me reported log10 IC50 for CCCCCCCCc1nc(N2CCc3cc(S(=O)(=O)Nc4ccccc4)ccc32)no1 , tested with UniProtKB P07550. 2.00

Request - read-out log10 IC50 | tested on UniProtKB P07550 | molecule OCc1cc(C(O)CNCc2ccc(NCC(O)c3ccc(O)c(CO)c3)cc2)ccc1O (stereo unspecified) 3.30

Return log10 IC50 measured with UniProtKB P07550 given this molecule: COc1ccc(CC[C@H](C)NC[C@H](O)COc2ccc(O)cc2)cc1 1.30

Field: log10 IC50 (UniProtKB P07550). Entry: O=S(=O)(Nc1ccc(CCNC[C@H](O)COc2ccc(O)cc2)cc1)c1ccc(Cl)c(Cl)c1 3.48

// map OCc1cc(C(O)CNCCCCNCC(O)c2ccc(O)c(CO)c2)ccc1O (stereo unspecified) to recorded log10 IC50 (system: UniProtKB P07550) 4.00
